MIC overview
Tested on: Staphylococcus hominis
Assay Info: Antibacterial activity against methicillin-resistant, coagulase-negative, inducible MLS-resistant Staphylococcus hominis E3 by broth microdilution method
Format: functional

- Smiles String: "CC[C@H]1OC(=O)[C@H](C)[C@@H](OC/C=C/c2cncnc2)[C@H](C)[C@@H](O[C@@H]2O[C@H](C)C[C@H](N(C)C)[C@H]2O)[C@](C)(OC)C[C@@H](C)/C(=N\\O)[C@H](C)[C@@H](O)[C@]1(C)O"
  MIC: "> 256 µg/mL"
- Smiles String: "CC[C@H]1OC(=O)[C@H](C)[C@@H](OCC#Cc2cncnc2)[C@H](C)[C@@H](O[C@@H]2O[C@H](C)C[C@H](N(C)C)[C@H]2O)[C@](C)(OC)C[C@@H](C)/C(=N\\O)[C@H](C)[C@@H](O)[C@]1(C)O"
  MIC: "> 256 µg/mL"
- Smiles String: "CC[C@H]1OC(=O)[C@H](C)[C@@H](O/C=C\\Cc2cncnc2)[C@H](C)[C@@H](O[C@@H]2O[C@H](C)C[C@H](N(C)C)[C@H]2O)[C@](C)(OC)C[C@@H](C)/C(=N\\O)[C@H](C)[C@H]2OC(=O)O[C@@]21C"
  MIC: "0.25 µg/mL"
- Smiles String: "CC[C@H]1OC(=O)[C@H](C)[C@@H](OCCCc2cncnc2)[C@H](C)[C@@H](O[C@@H]2O[C@H](C)C[C@H](N(C)C)[C@H]2O)[C@](C)(OC)C[C@@H](C)/C(=N\\OCc2ccccc2Cl)[C@H](C)[C@H]2OC(=O)O[C@@]21C"
  MIC: "> 256 µg/mL"
- Smiles String: "CC[C@H]1OC(=O)[C@H](C)[C@@H](OCCCc2cccnc2)[C@H](C)[C@@H](O[C@@H]2O[C@H](C)C[C@H](N(C)C)[C@H]2O)[C@](C)(OC)C[C@@H](C)/C(=N\\OCc2ccccc2Cl)[C@H](C)[C@H]2OC(=O)O[C@@]21C"
  MIC: "> 256 µg/mL"
- Smiles String: "CC[C@H]1OC(=O)[C@H](C)[C@@H](OCCCc2cncnc2)[C@H](C)[C@@H](O[C@@H]2O[C@H](C)C[C@H](N(C)C)[C@H]2O)[C@](C)(OC)C[C@@H](C)/C(=N\\O)[C@H](C)[C@@H](O)[C@]1(C)O"
  MIC: "> 256 µg/mL"
- Smiles String: "CC[C@H]1OC(=O)[C@H](C)[C@@H](O[C@H]2C[C@@](C)(OC)[C@@H](O)[C@H](C)O2)[C@H](C)[C@@H](O[C@@H]2O[C@H](C)C[C@H](N(C)C)[C@H]2O)[C@](C)(OC)C[C@@H](C)C(=O)[C@H](C)[C@@H](O)[C@]1(C)O"
  MIC: "> 256 µg/mL"
- Smiles String: "CC[C@H]1OC(=O)[C@H](C)[C@@H](O[C@H]2C[C@@](C)(OC)[C@@H](O)[C@H](C)O2)[C@H](C)[C@@H](O[C@@H]2O[C@H](C)C[C@H](N(C)C)[C@H]2O)[C@](C)(O)C[C@@H](C)CN(C)[C@H](C)[C@@H](O)[C@]1(C)O"
  MIC: "> 256 µg/mL"
